- system.name: Glutamate NMDA receptor
- assay: Affinity of [3H]-CGS- 19755 radioligand to rat N-methyl-D-aspartate (NMDA) receptor
- Type: protein-complex assay
outcome.measure: IC50

Which value of IC50 has been reported for O=C(O)[C@@H]1C[C@H]2C[C@@H](Cn3nnnc3S)CC[C@H]2CN1 (racemic) in the records?
> 10 µM

Which value of IC50 has been reported for O=C(O)[C@@H]1C[C@H]2C[C@@H](CSc3nn[nH]n3)CC[C@H]2CN1 in the records?
18.1 µM

Which value of IC50 has been reported for O=C(O)CC[C@@H]1CC[C@H]2CN[C@H](C(=O)O)C[C@H]2C1 in the records?
> 100 µM

Which value of IC50 has been reported for CCOC(=O)[C@@H]1C[C@H]2C[C@@H](CCC(=O)NS(C)(=O)=O)CC[C@H]2CN1C(=O)OC in the records?
> 100 µM

Which value of IC50 has been reported for CCOC(=O)[C@@H]1C[C@H]2C[C@@H](CCC(=O)NS(=O)(=O)c3ccccc3)CC[C@H]2CN1C(=O)OC in the records?
> 100 µM

Which value of IC50 has been reported for O=C(O)[C@@H]1C[C@H]2C[C@@H](CS(=O)(=O)c3nnc[nH]3)CC[C@H]2CN1 (stereo in doubt; (-)36) in the records?
> 100 µM

Which value of IC50 has been reported for O=C(O)[C@H]1C[C@@H]2C[C@H](CSc3nn[nH]n3)CC[C@@H]2CN1 in the records?
> 10 µM

Which value of IC50 has been reported for O=C(CC[C@H]1CC[C@H]2CN[C@H](C(=O)O)C[C@H]2C1)Nc1nn[nH]n1 in the records?
> 100 µM

Which value of IC50 has been reported for O=C(O)[C@@H]1C[C@H]2C[C@@H](CSc3nn[nH]n3)CC[C@H]2CN1 (racemic) in the records?
29.4 µM

Which value of IC50 has been reported for O=C(O)[C@@H]1C[C@H]2C[C@H](CCc3cc(O)no3)CC[C@H]2CN1 in the records?
> 100 µM

Which value of IC50 has been reported for O=C(O)[C@H]1C[C@@H]2C[C@@H](CSc3nn[nH]n3)CC[C@@H]2CN1 in the records?
> 100 µM

Which value of IC50 has been reported for CCOC(=O)[C@@H]1C[C@H]2C[C@@H](CCc3cc(OC)no3)CC[C@H]2CN1C(=O)OC in the records?
> 100 µM

Which value of IC50 has been reported for O=C(O)[C@H]1C[C@@H]2C[C@H](CS(=O)(=O)c3nc[nH]n3)CC[C@@H]2CN1 in the records?
60.9 µM

Which value of IC50 has been reported for O=C(O)[C@@H]1C[C@H]2C[C@H](CSc3nn[nH]n3)CC[C@H]2CN1 (stereo in doubt; (+/-)28) in the records?
47.9 µM

Which value of IC50 has been reported for CCOC(=O)[C@@H]1C[C@H]2C[C@@H](CCP(=O)(OCC)OCC)CC[C@H]2CN1C(=O)OC in the records?
> 100 µM

Which value of IC50 has been reported for O=C(O)[C@@H]1C[C@H]2C[C@H](CSc3nn[nH]n3)CC[C@H]2CN1 (stereo in doubt; (-)28) in the records?
29.8 µM

Which value of IC50 has been reported for O=C(O)[C@@H]1C[C@H]2C[C@@H](CCS(=O)(=O)O)CC[C@H]2CN1 in the records?
61.8 µM

Which value of IC50 has been reported for O=C(O)[C@@H]1C[C@H]2C[C@@H](Cn3nnc(S)n3)CC[C@H]2CN1 (racemic) in the records?
> 10 µM

Which value of IC50 has been reported for O=C(O)[C@@H]1C[C@H]2C[C@@H](CNc3nn[nH]n3)CC[C@H]2CN1 (racemic) in the records?
> 100 µM

Which value of IC50 has been reported for O=C(O)[C@@H]1C[C@H]2C[C@@H](CCc3nn[nH]n3)CC[C@H]2CN1 [TEZAMPANEL ANHYDROUS] in the records?
12.1 µM

Which value of IC50 has been reported for O=C(O)[C@@H]1C[C@H]2C[C@@H](CSc3nc[nH]n3)CC[C@H]2CN1 in the records?
> 10 µM

Which value of IC50 has been reported for O=C(O)CC[C@H]1CC[C@H]2CN[C@H](C(=O)O)C[C@H]2C1 in the records?
43.9 µM

Which value of IC50 has been reported for O=C(O)[C@@H]1C[C@H]2C[C@H](CCP(=O)(O)O)CC[C@H]2CN1 in the records?
> 10 µM

Which value of IC50 has been reported for O=C(O)[C@@H]1C[C@H]2C[C@H](CCc3nnn[nH]3)CC[C@H]2CN1 (stereo in doubt; (-)49) in the records?
76.9 µM

Which value of IC50 has been reported for O=C(O)[C@@H]1C[C@H]2C[C@H](CCS(=O)(=O)O)CC[C@H]2CN1 in the records?
> 100 µM

Where do these numbers come from? They come from ChEMBL document CHEMBL1129329.
